- Test protocol: Human HepG2 cell viability assay in 384 well format
- Format: toxicity, cell-based
- Design: dose 125 nL, time 70.5 hour; concentration not given beside the values
- Condition set: HepG2 cells, read-out: Inhibition
What cytotoxicity at 70.5 h was measured for each of the following?
Just the number in %, nothing appended.

Q: Look up cytotoxicity at 70.5 h for this molecule: "O=C(NCc1ccc(-n2cncn2)nc1)c1ccc2c(c1)CCC2"
Result: 0.85

Q: Look up cytotoxicity at 70.5 h for this molecule: Cn1ccnc1C1(O)CCCN(Cc2ccncc2)CC1 (stereo not given)
Result: -2.25

Q: Look up cytotoxicity at 70.5 h for this molecule: "COc1cccc(CNC[C@@]2(COc3cccnc3)C[C@@H](O)[C@@H](O)C2)c1"
Result: -3.95

Q: Look up cytotoxicity at 70.5 h for this molecule: "CC(C)c1nc(CSc2nnc(C3CC3)n2CC(N)=O)no1"
Result: -7.31

Q: Look up cytotoxicity at 70.5 h for this molecule: COc1ccc(OC)c(C(=O)N2CCCCC2Cn2cccn2)c1 (stereo not given)
Result: -0.39

Q: Look up cytotoxicity at 70.5 h for this molecule: CC(C)N(CCO)C(=O)C1CCC(=O)N(Cc2ccc(Cl)cc2)C1 (stereo not given)
Result: -4.75

Q: Look up cytotoxicity at 70.5 h for this molecule: "Cn1ncc2c(N3CC(N4CCCCC4)C3)nc(C3CCCC3)nc21"
Result: -4.55

Q: Look up cytotoxicity at 70.5 h for this molecule: CC(C)(C)CC(=O)N1CCC(c2nn(CCN)c3nccnc23)C1 (stereo not given)
Result: -4.08

Q: Look up cytotoxicity at 70.5 h for this molecule: Cc1c(C2N3C[C@]4(C)CN2C[C@](C)(C3)C4=O)[nH]c(=O)[nH]c1=O (stereo not given in full)
Result: -11.7

Q: Look up cytotoxicity at 70.5 h for this molecule: "CO[C@H]1CN(Cc2ccc(F)c(F)c2)C[C@@]12CCCO2"
Result: -2.35

Q: Look up cytotoxicity at 70.5 h for this molecule: "Cc1cccc(N2CCN(CCCNC(=O)c3nccn3C)CC2)c1"
Result: -3.1

Q: Look up cytotoxicity at 70.5 h for this molecule: NC[C@H]1CC[C@H](C(NC(=O)C2CC2)c2ccccn2)CC1 (stereo not given in full)
Result: -6.56

Q: Look up cytotoxicity at 70.5 h for this molecule: "Cc1nc(O)c2nnn(C[C@H]3CCCN3C(=O)C(C)(C)C)c2n1"
Result: -13.1

Q: Look up cytotoxicity at 70.5 h for this molecule: Cc1nc(C2CCCN2C(=O)CCc2ccccc2)ncc1C(N)=O (stereo not given)
Result: -11.8

Q: Look up cytotoxicity at 70.5 h for this molecule: Cn1c(CO)cnc1SC(C(=O)NC1CC1)c1ccccc1 (stereo not given)
Result: -8.64

Q: Look up cytotoxicity at 70.5 h for this molecule: "O=C(NCCCn1cccn1)C1(c2cccc(Cl)c2)CC1"
Result: 55.5

Q: Look up cytotoxicity at 70.5 h for this molecule: "COc1ccnc(N2CCN(C(=O)c3ccc(Cl)o3)CC2)n1"
Result: -4.43

Q: Look up cytotoxicity at 70.5 h for this molecule: "O=C(CCOc1ccccc1Cl)N1CCN(c2cnccn2)CC1"
Result: 0.75

Q: Look up cytotoxicity at 70.5 h for this molecule: Cn1cc(N2CCCC(Oc3ccc(F)cc3Cl)C2=O)cn1 (stereo not given)
Result: -4.99

Q: Look up cytotoxicity at 70.5 h for this molecule: "Cc1c(Cl)c(C(=O)N2CC(c3cccnc3)C2)nn1C"
Result: -1.27

Q: Look up cytotoxicity at 70.5 h for this molecule: "CCS(=O)(=O)N1CCn2cc(CN(C)Cc3ccco3)nc2C1"
Result: -2.7

Q: Look up cytotoxicity at 70.5 h for this molecule: "CCNC(=O)N1C[C@@H](NC(C)=O)[C@H](c2ccc(C)o2)C1"
Result: -2.82

Q: Look up cytotoxicity at 70.5 h for this molecule: CCN1CC2(CCN(C(=O)C(C)Oc3ccc(F)cc3F)CC2)OC1=O (stereo not given)
Result: -1.13

Q: Look up cytotoxicity at 70.5 h for this molecule: CN(C)c1cc(C(F)(F)F)nc(N2CCCC2c2ccccn2)n1 (stereo not given)
Result: -5.01

Q: Look up cytotoxicity at 70.5 h for this molecule: Cc1nc(CN2Cc3cn(C)nc3C(COCC3CC3)C2)cs1 (stereo not given)
Result: 14.1

###

- Test protocol: Human HepG2 cell viability assay in 384 well format
- Assay type: toxicity, cell-based
- Set-up: dose 125 nL, time 70.5 hour; concentration not given beside the values
- Condition set: HepG2 cells, read-out: Inhibition
What cytotoxicity at 70.5 h was measured for each of the following?
Just the number in %, nothing appended.

Q: Look up cytotoxicity at 70.5 h for this compound: CS(=O)(=O)N1Cc2ccnn2CC(C(=O)NCc2cccnc2)C1 (centres undefined)
Result: 20.5

Q: Look up cytotoxicity at 70.5 h for this compound: CC(C)c1cc(=O)[nH]c(-c2ccccc2CN2CCCC2C)n1 (centres undefined)
Result: -19.9

Q: Look up cytotoxicity at 70.5 h for this compound: Cn1cc(C2CCCN2C(=O)CS(=O)(=O)C2CCCC2)cn1 (centres undefined)
Result: -8.05

Q: Look up cytotoxicity at 70.5 h for this compound: OC(COCc1cccs1)CN1CCC(c2ccn[nH]2)CC1 (centres undefined)
Result: -17.6

Q: Look up cytotoxicity at 70.5 h for this compound: "Cc1cc(N(C)CCn2ccnc2C)n2nccc2n1"
Result: -11.6

Q: Look up cytotoxicity at 70.5 h for this compound: CS(=O)(=O)CCCN1CCOC2(CCc3ccccc32)C1 (centres undefined)
Result: 0.769

Q: Look up cytotoxicity at 70.5 h for this compound: "Cc1cc(C(=O)NCCn2nc3ccccn3c2=O)[nH]n1"
Result: -13.9

Q: Look up cytotoxicity at 70.5 h for this compound: "CN(CCn1cncc1-c1cnc(N2CCOCC2)nc1)C1CCCC1"
Result: -5.17

Q: Look up cytotoxicity at 70.5 h for this compound: "Cn1ncc(NC(=O)c2noc3c2CCCC3)c1C(=O)N1CCCCC1"
Result: -6.23

###

- Test protocol: Human HepG2 cell viability assay in 384 well format
- Type: toxicity, cell-based
- Parameters: dose 125 nL, time 70.5 hour; concentration not given beside the values
- Condition set: HepG2 cells, read-out: Inhibition
What cytotoxicity at 70.5 h was measured for each of the following?
Just the number in %, nothing appended.

Q: Look up cytotoxicity at 70.5 h for this compound: c1cnn(CC2CN(Cc3noc(C4CC4)n3)CCO2)c1 (configuration not stated)
Result: -0.284

Q: Look up cytotoxicity at 70.5 h for this compound: "CCN(CC)C(=O)C1(NCc2nc(C)c(C)o2)CCCCC1"
Result: -4.63

Q: Look up cytotoxicity at 70.5 h for this compound: "Cc1ccc(CNC(=O)c2c[nH]nc2NC(=O)C2CCC2)cc1"
Result: -7.26

Q: Look up cytotoxicity at 70.5 h for this compound: Cc1ccc(C(=O)NC2CCCN(c3ncccn3)C2)cn1 (configuration not stated)
Result: 19.3

Q: Look up cytotoxicity at 70.5 h for this compound: "CN(C)C(=O)CN1CCN(c2ccnc3c(F)ccc(F)c23)CC1"
Result: -4.33

Q: Look up cytotoxicity at 70.5 h for this compound: "CS(=O)(=O)N1CC[C@]2(C[C@@H](OCC3CCC3)CO2)C1"
Result: -12.4

Q: Look up cytotoxicity at 70.5 h for this compound: "COc1cc2nc(NCCNS(C)(=O)=O)cc(C)c2cc1OC"
Result: -0.473

Q: Look up cytotoxicity at 70.5 h for this compound: "Cn1nccc1C(=O)N1Cc2cc(Cl)ccc2OC2(CCOCC2)C1"
Result: 2.41

Q: Look up cytotoxicity at 70.5 h for this compound: "Cc1nn(C)c(C)c1CC(=O)NCc1ccnc(OC2CCCC2)c1"
Result: -5.31

Q: Look up cytotoxicity at 70.5 h for this compound: "NCC1(c2cccc(C(F)(F)F)c2)CCC1"
Result: -2.75

Q: Look up cytotoxicity at 70.5 h for this compound: Cn1c(CO)cnc1SC(C(N)=O)c1ccccc1 (configuration not stated)
Result: -15.2

Q: Look up cytotoxicity at 70.5 h for this compound: "Cc1[nH]ncc1CCCNC(=O)N1CCC(CC(N)=O)CC1"
Result: -0.905

Q: Look up cytotoxicity at 70.5 h for this compound: Cc1cccc(OCC2CCCN(C(=O)Cn3ccccc3=O)C2)c1 (configuration not stated)
Result: 5.85

Q: Look up cytotoxicity at 70.5 h for this compound: "Cc1nn(C)cc1-c1cc(C(F)(F)F)nn1CCC#N"
Result: -1.92

Q: Look up cytotoxicity at 70.5 h for this compound: "COc1cccc2c3c(c(=O)[nH]c12)CC(C)(C)O3"
Result: -6.98

Q: Look up cytotoxicity at 70.5 h for this compound: "COC(=O)c1cccc(CNC(=O)NCCC(F)(F)F)c1"
Result: 1.57

Q: Look up cytotoxicity at 70.5 h for this compound: "N#Cc1ccsc1C(=O)N1CCCN(Cc2cscn2)CC1"
Result: 5.01
